- system tested: p38 kinase enzyme (Homo sapiens, UniProt Q16539)
- Sequence (Q16539 whole entry): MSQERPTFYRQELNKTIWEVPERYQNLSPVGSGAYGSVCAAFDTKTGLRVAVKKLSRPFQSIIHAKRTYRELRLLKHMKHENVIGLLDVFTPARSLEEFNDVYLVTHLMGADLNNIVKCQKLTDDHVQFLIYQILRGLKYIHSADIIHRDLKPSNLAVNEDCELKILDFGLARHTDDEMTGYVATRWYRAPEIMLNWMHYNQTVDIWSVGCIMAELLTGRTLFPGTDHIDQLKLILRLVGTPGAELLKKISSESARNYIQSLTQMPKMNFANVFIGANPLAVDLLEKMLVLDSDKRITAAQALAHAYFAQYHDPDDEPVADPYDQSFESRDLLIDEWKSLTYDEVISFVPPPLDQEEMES
pIC50: −log10 of the molar value.

compound	pIC50
Cc1ccc(-n2nc(C(C)(C)C)cc2NC(=O)Nc2ccc(N3CCN(C(=O)C(C)(C)C)CC3)cc2)cc1 [Example 136]	7.04
